Documented growth across a set of compounds
test system: SK-MEL-28 melanoma; assay: NCI-60 one-dose screen, 48 h (100 = growth as untreated, 0 = no growth, -100 = all killed); conditions: 10 µM
About 83,000 compounds went through this panel and 20% of them were active in at least one assay; those are over-represented in the sample as a whole. Calls of active or inactive are those of the source. Rule for the calls: active = growth percent below 10; inactive = the rest.

Some solved cases for reference:
[[record]]
compound = "COc1ccc(-c2ccc3cc(C(=O)Nc4ccc(O)c(C(=O)/C=C/c5cc(OC)c(OC)c(OC)c5)c4)ccc3c2)cc1"
target_or_test_system = "SK-MEL-28 melanoma"
measured_parameter = "growth"
observed = "106% (inactive)"

[[record]]
compound = "CC/C(=C(/c1ccc(OCCN(C)C)cc1)c1ccc(OC(=O)CCCCCCCCC(=O)c2c(C)[nH]c(/C=C3\\N=C(c4ccc[nH]4)C=C3OC)c2C)cc1)c1ccccc1"
target_or_test_system = "SK-MEL-28 melanoma"
measured_parameter = "growth"
observed = "84.3% (inactive)"

[[record]]
compound = "CCCCCCN1CCN(Cc2ccc(N(CC)CC)cc2)C(=O)C1=O"
target_or_test_system = "SK-MEL-28 melanoma"
measured_parameter = "growth"
observed = "49.9% (inactive)"


Data request: Record request: growth value, item O=C(Nc1ccc(Cl)cc1)N1NC(c2ccc(Cl)cc2)C=C1c1ccccc1 (stereo unspecified)
Data returned: 109% (inactive)

Data request: Please answer likewise for COc1ccc2c(c1)/C(=C\c1c[nH]c3ccc(OC)cc13)C(=O)N2
Data returned: 71.7% (inactive)

Data request: Please answer likewise for O=C1/C(=C\c2ccc(F)cc2)CN(C(=O)c2ccc([N+](=O)[O-])cc2)C/C1=C\c1ccc(F)cc1
Data returned: 65.1% (inactive)

* * *

test system: OVCAR-3 ovarian; assay: NCI-60 one-dose screen, 48 h; settings: 10 µM
The panel holds about 83,000 compounds, 20% with a hit somewhere; the sample as a whole holds those more often. Active and inactive are the calls of the source. Rule for the calls: active = growth percent below 10; inactive = the rest.
Hi there, use one of these labels in your reply, thanks! active, inactive

[[record]]
compound = "O=C1/C(=C\\c2ccc(F)cc2)CN(C(=O)c2ccccc2)C/C1=C\\c1ccc(F)cc1"
category = "inactive"

[[record]]
compound = "Cc1[nH]nc2c1C(c1cnn(C)c1)C(C#N)=C(N)O2 (centres undefined)"
category = "inactive"

[[record]]
compound = "COc1ccc(OC)c2c1C(=O)CC2C (centres undefined)"
category = "inactive"

[[record]]
compound = "Cc1cc(=O)[nH]c(N/N=C/c2ccccc2O)n1"
category = "active"


Consider the additional compound presented here.
Data request: What was the test verdict on CCCCC(CCCCCC(CCCC)NCc1ccc2c(c1)OCO2)NCc1ccc2c(c1)OCO2 (centres undefined) ?
Data returned: active

* * *

tested on: SF-268 CNS; assay: NCI-60 one-dose screen, 48 h (100 = growth as untreated, 0 = no growth, -100 = all killed); details: 10 µM
The panel holds about 83,000 compounds, 20% with a hit somewhere; the sample as a whole holds those more often. Active and inactive are the calls of the source. The calls were made as follows: active = growth percent below 10; inactive = the rest.
Documented growth across a set of compounds

Some solved cases for reference:
[[record]]
compound = "CCOCC(=O)C(C#N)c1ccc(Cl)c(Cl)c1 (configuration not stated)"
observed = "106% (inactive)"

[[record]]
compound = "NC1(C(=O)O)CSSC1"
observed = "101% (inactive)"

[[record]]
compound = "COc1cc(Nc2ccnc(NCCNc3ccnc4cc(Cl)ccc34)n2)cc(OC)c1"
observed = "50.5% (inactive)"

[[record]]
compound = "COc1cc(NC(=O)c2sc3nc4c(cc3c2N)C(O)CCC4)cc(OC)c1 (configuration not stated)"
observed = "103% (inactive)"

[[record]]
compound = "O=C1/C(=C\\c2ccc(Cl)cc2)CN(C(=O)c2ccccc2)C/C1=C\\c1ccc(Cl)cc1"
observed = "26.9% (inactive)"

[[record]]
compound = "O=C1CC[C@@H]2CCCC[C@@H]2C1"
observed = "113% (inactive)"


Then this compound:
Data request: Record request: growth value, item COc1cc(-c2cc(/C=C3\C(=O)Nc4ccc(Cl)cc43)[nH]n2)cc(OC)c1OC
Data returned: 38.2% (inactive)
